Ref: ChEMBL document CHEMBL1149949

Entries with their measured log10 IC50, system UniProt Q72874:
In plain terms, each number is the log10 of measured IC50 in µM.

Give log10 IC50 for each of the items listed below.
1. CC(C)COC(=O)c1ccccc1CSc1c(O)cc(-c2ccccc2)oc1=O
2. CCc1cccc(-c2cc(O)c(SCc3ccccc3)c(=O)o2)c1
3. Cc1cccc(-c2cc(O)c(SCc3ccccc3)c(=O)o2)c1
4. O=C(OC1CCCCC1)c1ccccc1CSc1c(O)oc(-c2ccccc2)cc1=O
5. CC(C)(C)NC(=O)c1ccccc1CSc1c(O)cc(-c2ccccc2)oc1=O
6. COC(=O)c1ccccc1CSc1c(O)cc(-c2ccccc2)oc1=O
7. Cc1ccc(-c2cc(O)c(SCc3ccccc3)c(=O)o2)cc1
8. O=C(OC1CCCC1)c1ccccc1CSc1c(O)oc(-c2ccccc2)cc1=O

-0.21
0.31
-0.07
0.08
-0.72
0.00
1.09
-1.30
